Measured inhibition at 100 µg/mL values are reported for all entries that follow.
# Experimental system: purified recombinant human LDHA protein (Homo sapiens)
# Assay text: Lactate dehydrogenase-A (LDHA) inhibition assay, NADH consumption
# Type: biochemical
# Conditions used: LDHA; 100 µg/ml; read-out: Mean Inhibition % at 100 µg/ml ± SD
Expressed in %, but write only the number.

Record excerpt, results attached:
// inhibition at 100 µg/mL lookup, key: Cc1nc2ccc(Cl)cc2c(=O)n1N [Compound 5b]
11.8

// inhibition at 100 µg/mL lookup, key: COc1cc(C=NNc2nc3ccccc3[nH]c2=O)cc(Cl)c1O [Compound 4a]
20.3

// inhibition at 100 µg/mL lookup, key: O=c1[nH]c2ccccc2[nH]c1=O [Compound 1]
33.8

// inhibition at 100 µg/mL lookup, key: COc1cc2nc(C)n(N=Cc3ccc(OCc4ccccc4)c(OC)c3)c(=O)c2cc1OC [Compound 6d]
31.2

// inhibition at 100 µg/mL lookup, key: O=C(O)c1ccc(/C=N/Nc2nc3ccccc3[nH]c2=O)cc1 [Compound 4d]
47.4

Here is the next item to consider.
// inhibition at 100 µg/mL lookup, key: NN=c1[nH]c2ccccc2[nH]c1=O [Compound 2]
26.7

* * *

# Assay text: In vitro cytotoxicity assay (LDH release)
# Type: cell-based, human
# Conditions used: human, LoVo human colon cancer cells; LoVo cells
Readout label: IC50 at 24 h (µg/mL)
Expressed in µg/mL, but write only the number.

// IC50 at 24 h lookup, key: COc1cc2nc(C)n(N=Cc3ccc(OCc4ccccc4)c(OC)c3)c(=O)c2cc1OC [Compound 6d]
128

* * *

Measured inhibition at 200 µg/mL values are reported for all entries that follow.
# Experimental system: COX-2 (Homo sapiens, UniProt P35354)
# Construct: purchased Cayman Chemical Company 701080
# Sequence (P35354 18-604): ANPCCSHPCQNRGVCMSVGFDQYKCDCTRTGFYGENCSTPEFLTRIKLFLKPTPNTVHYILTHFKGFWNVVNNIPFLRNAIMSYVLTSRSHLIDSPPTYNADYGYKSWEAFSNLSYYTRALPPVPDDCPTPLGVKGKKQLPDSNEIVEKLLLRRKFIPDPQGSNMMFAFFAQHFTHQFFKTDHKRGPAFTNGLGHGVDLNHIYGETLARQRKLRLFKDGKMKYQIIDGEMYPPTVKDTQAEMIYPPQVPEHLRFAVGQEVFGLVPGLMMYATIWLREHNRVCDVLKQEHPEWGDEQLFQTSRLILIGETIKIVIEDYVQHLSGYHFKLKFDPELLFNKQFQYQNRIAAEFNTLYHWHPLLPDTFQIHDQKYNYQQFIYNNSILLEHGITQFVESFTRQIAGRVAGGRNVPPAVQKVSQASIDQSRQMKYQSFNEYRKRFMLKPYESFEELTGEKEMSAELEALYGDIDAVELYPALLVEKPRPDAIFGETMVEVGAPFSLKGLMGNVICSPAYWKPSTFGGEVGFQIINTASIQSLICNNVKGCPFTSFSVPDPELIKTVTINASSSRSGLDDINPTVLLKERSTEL
# Assay text: Cyclooxygenase (COX-2) inhibition assay (Cayman kit 701080)
# Type: biochemical
# Conditions used: 200 µg/ml, read-out: Mean Inhibition % at 200 µg/ml ± SD
Expressed in %, but write only the number.

Record excerpt, results attached:
Observed inhibition at 200 µg/mL on COX-2 (Homo sapiens, UniProt P35354) for COc1cc2nc(C)n(N=Cc3ccc(OCc4ccccc4)c(OC)c3)c(=O)c2cc1OC , please.
97.5

Observed inhibition at 200 µg/mL on COX-2 (Homo sapiens, UniProt P35354) for Cc1nc2ccc(Cl)cc2c(=O)n1N , please.
9.05

Observed inhibition at 200 µg/mL on COX-2 (Homo sapiens, UniProt P35354) for COc1cc(C=Nn2c(C)nc3ccc(Cl)cc3c2=O)ccc1OCc1ccccc1 , please.
100

Observed inhibition at 200 µg/mL on COX-2 (Homo sapiens, UniProt P35354) for COc1cc2nc(C)n(N=Cc3ccc(C(=O)O)cc3)c(=O)c2cc1OC , please.
69

Observed inhibition at 200 µg/mL on COX-2 (Homo sapiens, UniProt P35354) for CCc1ccc(C=Nn2c(C)nc3ccc(F)cc3c2=O)s1 , please.
48.6

Observed inhibition at 200 µg/mL on COX-2 (Homo sapiens, UniProt P35354) for NN=c1[nH]c2ccccc2[nH]c1=O , please.
15.4

Observed inhibition at 200 µg/mL on COX-2 (Homo sapiens, UniProt P35354) for COc1cc(C=NNc2nc3ccccc3[nH]c2=O)cc(I)c1O , please.
21.1

Observed inhibition at 200 µg/mL on COX-2 (Homo sapiens, UniProt P35354) for CCc1ccc(/C=N/n2c(C)nc3ccc(Cl)cc3c2=O)s1 , please.
20.7

Further cases:
Observed inhibition at 200 µg/mL on COX-2 (Homo sapiens, UniProt P35354) for COc1ccc2cc(C=NNc3nc4ccccc4[nH]c3=O)ccc2c1 , please.
54

Observed inhibition at 200 µg/mL on COX-2 (Homo sapiens, UniProt P35354) for COc1ccc2cc(/C=N/n3c(C)nc4ccc(Cl)cc4c3=O)ccc2c1 , please.
36.9

Observed inhibition at 200 µg/mL on COX-2 (Homo sapiens, UniProt P35354) for COc1cc(C=NNc2nc3ccccc3[nH]c2=O)cc(Cl)c1O , please.
12.1

Observed inhibition at 200 µg/mL on COX-2 (Homo sapiens, UniProt P35354) for O=c1[nH]c2ccccc2[nH]c1=O , please.
48.1

* * *

# Assay text: In vitro cytotoxicity assay (LDH release)
# Format: cell-based, human
# Conditions used: human, HCT-116 colon cancer cells; 200 µg/ml; 24 h; read-out: Mean % Cell Viability ± SD CRC-HCT-116 cells
Measured viability at 24 h, 200 µg/mL values are reported for all entries that follow.
Expressed in %, but write only the number.

Record excerpt, results attached:
// viability at 24 h, 200 µg/mL lookup, key: CCc1ccc(C=Nn2c(C)nc3ccc(F)cc3c2=O)s1 [Compound 6g]
86.5

// viability at 24 h, 200 µg/mL lookup, key: COc1cc(C=Nn2c(C)nc3ccc(Cl)cc3c2=O)ccc1OCc1ccccc1 [Compound 6e]
89

// viability at 24 h, 200 µg/mL lookup, key: COc1cc(C=NNc2nc3ccccc3[nH]c2=O)cc([N+](=O)[O-])c1O [Compound 4c]
77.3

// viability at 24 h, 200 µg/mL lookup, key: COc1cc2nc(C)n(N=Cc3ccc(OCc4ccccc4)c(OC)c3)c(=O)c2cc1OC [Compound 6d]
18.5

// viability at 24 h, 200 µg/mL lookup, key: COc1cc2nc(C)n(N=Cc3cc(OC)c(O)c([N+](=O)[O-])c3)c(=O)c2cc1OC [Compound 6a]
91.2

Here is the next item to consider.
// viability at 24 h, 200 µg/mL lookup, key: COc1cc2nc(C)n(N=Cc3ccc(C(=O)O)cc3)c(=O)c2cc1OC [Compound 6b]
47

* * *

Measured inhibition at 200 µg/mL values are reported for all entries that follow.
# Experimental system: COX-2 (Homo sapiens)
# Construct: purchased Cayman Chemical Company 701080
# Assay text: Cyclooxygenase (COX-2) inhibition assay (Cayman kit 701080)
# Type: biochemical
# Conditions used: 200 µg/ml, read-out: Mean Inhibition % at 200 µg/ml ± SD
Expressed in %, but write only the number.

Record excerpt, results attached:
// inhibition at 200 µg/mL lookup, key: COc1cc(C=NNc2nc3ccccc3[nH]c2=O)cc([N+](=O)[O-])c1O
61.1

// inhibition at 200 µg/mL lookup, key: O=C(O)c1ccc(/C=N/Nc2nc3ccccc3[nH]c2=O)cc1
28.9

Further cases:
// inhibition at 200 µg/mL lookup, key: COc1cc2nc(C)n(N=Cc3cc(OC)c(O)c([N+](=O)[O-])c3)c(=O)c2cc1OC
83
